Test system: Rattus norvegicus
method_notes: Anti-inflammatory activity in Rattus norvegicus (rat) assessed as inhibition of carrageenan-induced paw edema at 10 mg/kg, po measured at 30 min post carrageenan-challenge (reference value: 5.1 +/- 0.29%)
Type: functional
measurement_parameters: 0.5 h
Listed here are molecules together with their documented inhibition in vivo at 10 mg/kg.
Your answer should be a plain number; it is taken to be in %.

molecule | test_result
O=C1Nc2ccccc2/C1=N\Nc1nc2ccccc2c(=O)n1Cc1ccccc1 | 36
Cc1ccc(/C=N/Nc2nc3ccccc3c(=O)n2Cc2ccccc2)cc1 | 38
CCC(CC)=NNc1nc2ccccc2c(=O)n1Cc1ccccc1 | 49
C/C(=N\Nc1nc2ccccc2c(=O)n1Cc1ccccc1)c1ccccc1 | 40
O=c1c2ccccc2nc(NN=C(c2ccccc2)c2ccccc2)n1Cc1ccccc1 | 36
O=c1c2ccccc2nc(N/N=C/c2ccc([N+](=O)[O-])cc2)n1Cc1ccccc1 | 31
O=c1c2ccccc2nc(NN=C2CCCCC2)n1Cc1ccccc1 | 36
CCC/C(C)=N/Nc1nc2ccccc2c(=O)n1Cc1ccccc1 | 47

Q: inhibition in vivo at 10 mg/kg for COc1ccc(/C=N/Nc2nc3ccccc3c(=O)n2Cc2ccccc2)cc1 ?
Result: 28

Q: Given O=c1c2ccccc2nc(N/N=C/c2ccccc2[N+](=O)[O-])n1Cc1ccccc1 , state its recorded inhibition in vivo at 10 mg/kg.
Result: 30

Q: I would be grateful if you could share the reported inhibition in vivo at 10 mg/kg for Cc1ccccc1/C=N/Nc1nc2ccccc2c(=O)n1Cc1ccccc1 .
Result: 39

Q: Query: inhibition in vivo at 10 mg/kg; subject: O=c1c2ccccc2nc(N/N=C/c2ccc(Cl)cc2)n1Cc1ccccc1
Result: 34

Q: Reported inhibition in vivo at 10 mg/kg for O=C([O-])Cc1ccccc1Nc1c(Cl)cccc1Cl.[Na+] [DICLOFENAC SODIUM] : what is it?
Result: 32

Q: # inhibition in vivo at 10 mg/kg lookup, item O=c1c2ccccc2nc(N/N=C/c2ccccc2Cl)n1Cc1ccccc1
Result: 30

Q: Param item = CC/C(C)=N/Nc1nc2ccccc2c(=O)n1Cc1ccccc1 ; retrieve measured inhibition in vivo at 10 mg/kg.
Result: 45

Q: Any idea what inhibition in vivo at 10 mg/kg was measured for O=c1c2ccccc2nc(N/N=C/c2ccccc2)n1Cc1ccccc1 ?
Result: 35

* * *

Tested on: Rattus norvegicus
method_notes: Anti-inflammatory activity in Rattus norvegicus (rat) assessed as inhibition of carrageenan-induced paw edema at 10 mg/kg, po measured at 2 hr post carrageenan-challenge (reference value: 5.7+/- 0.32%)
Assay type: functional
test_readout: inhibition in vivo at 10 mg/kg (%)
Give just the numeric value; % need not be written.

# example entries with known answers
compound | test_result
O=c1c2ccccc2nc(N/N=C/c2ccccc2)n1Cc1ccccc1 | 40
O=C([O-])Cc1ccccc1Nc1c(Cl)cccc1Cl.[Na+] [DICLOFENAC SODIUM] | 39

For the next question, use this compound.
Q: Field request: inhibition in vivo at 10 mg/kg | item: CCN(CC)C(=S)Nn1c(SC)nc2ccccc2c1=O
Result: 40
